Here the recorded AST is given for each entry.
- Species: Rattus norvegicus
- protocol: Open TG-GATES - Regimen: Single
- Format: toxicity, organism-based, Sprague-Dawley
- Design: regimen Single, gender Male, age 6 weeks
- details: in vivo, po, 0 mg/kg, 9 h, tissue Plasma, route gavage, dose level Control
property.measured: AST (IU/L)

{"smiles.code": "CN(C)CCCN1c2ccccc2Sc2ccc(Cl)cc21", "property.measured": "AST", "reported.result": 68}
{"smiles.code": "Nc1ccc(Cc2ccc(N)cc2)cc1", "property.measured": "AST", "reported.result": 64.4}
{"smiles.code": "CC(=O)[C@@]1(O)CC[C@H]2[C@@H]3C=C(Cl)C4=CC(=O)CC[C@]4(C)[C@H]3CC[C@@]21C", "property.measured": "AST", "reported.result": 70.2}

----------
- Species: Rattus norvegicus
- protocol: Open TG-GATES - Regimen: Single
- Assay type: toxicity, organism-based, Sprague-Dawley
- Set-up: regimen Single, gender Male, age 6 weeks
- details: in vivo, po, 0 mg/kg, 24 h, tissue Blood, route gavage, dose level Control
property.measured: Hb (g/dL)

{"compound": "COc1ccc([C@@H]2Sc3ccccc3N(CCN(C)C)C(=O)[C@@H]2OC(C)=O)cc1 [DILTIAZEM]", "property.measured": "Hb", "reported.result": 13}
{"compound": "Nc1ccc(Cc2ccc(N)cc2)cc1", "property.measured": "Hb", "reported.result": 13.1}
{"compound": "CCO [ALCOHOL]", "property.measured": "Hb", "reported.result": 13.5}

----------
- Species on record: Rattus norvegicus
- protocol: Open TG-GATES - Regimen: Single
- Format: toxicity, organism-based, Sprague-Dawley
- Parameters: regimen Single, gender Male, age 6 weeks
- details: in vivo, po, 0 mg/kg, 9 h, tissue Blood, route gavage, dose level Control
Quick list: Eos per entry.
property.measured: Eos (%)

{"compound": "CCO [ALCOHOL]", "reported.result": 1}
{"compound": "Nc1ccc(Cc2ccc(N)cc2)cc1", "reported.result": 0.8}
{"compound": "CN(CCOc1ccc(CC2SC(=O)NC2=O)cc1)c1ccccn1.O=C(O)/C=C\\C(=O)O (stereo unspecified) [ROSIGLITAZONE MALEATE]", "reported.result": 0.6}
{"compound": "CCCCNC(=O)NS(=O)(=O)c1ccc(C)cc1 [TOLBUTAMIDE]", "reported.result": 1.2}
{"compound": "O=C(O)c1ccccc1Nc1ccccc1 [FENAMIC ACID]", "reported.result": 1}
{"compound": "CC(=O)[C@@]1(O)CC[C@H]2[C@@H]3C=C(Cl)C4=CC(=O)CC[C@]4(C)[C@H]3CC[C@@]21C [CHLORMADINONE]", "reported.result": 0.8}
{"compound": "CN(C)CCCN1c2ccccc2Sc2ccc(Cl)cc21 [CHLORPROMAZINE]", "reported.result": 0.6}
{"compound": "CCN(CC)C(=S)SSC(=S)N(CC)CC", "reported.result": 0.8}
{"compound": "CC(S)C(=O)NCC(=O)O (stereo unspecified) [TIOPRONIN]", "reported.result": 0.8}
{"compound": "CN(C/C=C/C#CC(C)(C)C)Cc1cccc2ccccc12 [TERBINAFINE]", "reported.result": 1}
{"compound": "O=c1ccc2ccccc2o1 [COUMARIN]", "reported.result": 0.8}
